Biological target: human LOXL2 (Homo sapiens)
Construct: secreted protein in 10-20x concentrated conditioned media
Experiment: Human LOXL2 Amine Oxidase Activity Assay (Amplex Red fluorescence)
Settings: concentrated conditioned media from CHO cells stably expressing human LOXL2, test compound incubated 2 h at 37° C., pH8, DAP substrate
Structures can show the parent of a compound that is named as a salt.
Answer each item with its documented IC50.

# return recorded IC50 for entry NCc1cc(=O)c2cccc(OCCOc3ccccc3)c2o1 [Compound 1-56, hydrochloride] > 1000 nM

# return recorded IC50 for entry NCc1cc(=O)c2cc(-n3cccn3)ccc2o1 [Compound 1-10, hydrochloride] < 300 nM

# return recorded IC50 for entry NCc1cc(=O)c2cc(C(=O)N3CCCCC3)ccc2o1 [Compound 1-19, hydrochloride] 300 to 1000 nM

# return recorded IC50 for entry NCc1cc(=O)c2cc(OCC(=O)O)ccc2o1 [Compound 1-34, hydrochloride] 300 to 1000 nM

# return recorded IC50 for entry CN(C)C(=O)COc1ccc2oc(CN)cc(=O)c2c1 [Compound 1-35, hydrochloride] 300 to 1000 nM

# return recorded IC50 for entry NCc1cc(=O)c2cc(C(=O)N3C[C@@H](O)[C@H](F)C3)ccc2o1 [Compound 1-61, hydrochloride] 300 to 1000 nM

# return recorded IC50 for entry CS(=O)(=O)CCNC(=O)c1ccc2oc(CN)cc(=O)c2c1 [Compound 1-26, hydrochloride] 300 to 1000 nM

# return recorded IC50 for entry COC(=O)[C@H]1CCN(C(=O)c2ccc3oc(CN)cc(=O)c3c2)C1 [Compound 1-36, hydrochloride] > 1000 nM

----------
Target: human LOXL2 (Homo sapiens, UniProt Q9Y4K0)
Construct: secreted protein in 10-20x concentrated conditioned media
Sequence (Q9Y4K0 26-774): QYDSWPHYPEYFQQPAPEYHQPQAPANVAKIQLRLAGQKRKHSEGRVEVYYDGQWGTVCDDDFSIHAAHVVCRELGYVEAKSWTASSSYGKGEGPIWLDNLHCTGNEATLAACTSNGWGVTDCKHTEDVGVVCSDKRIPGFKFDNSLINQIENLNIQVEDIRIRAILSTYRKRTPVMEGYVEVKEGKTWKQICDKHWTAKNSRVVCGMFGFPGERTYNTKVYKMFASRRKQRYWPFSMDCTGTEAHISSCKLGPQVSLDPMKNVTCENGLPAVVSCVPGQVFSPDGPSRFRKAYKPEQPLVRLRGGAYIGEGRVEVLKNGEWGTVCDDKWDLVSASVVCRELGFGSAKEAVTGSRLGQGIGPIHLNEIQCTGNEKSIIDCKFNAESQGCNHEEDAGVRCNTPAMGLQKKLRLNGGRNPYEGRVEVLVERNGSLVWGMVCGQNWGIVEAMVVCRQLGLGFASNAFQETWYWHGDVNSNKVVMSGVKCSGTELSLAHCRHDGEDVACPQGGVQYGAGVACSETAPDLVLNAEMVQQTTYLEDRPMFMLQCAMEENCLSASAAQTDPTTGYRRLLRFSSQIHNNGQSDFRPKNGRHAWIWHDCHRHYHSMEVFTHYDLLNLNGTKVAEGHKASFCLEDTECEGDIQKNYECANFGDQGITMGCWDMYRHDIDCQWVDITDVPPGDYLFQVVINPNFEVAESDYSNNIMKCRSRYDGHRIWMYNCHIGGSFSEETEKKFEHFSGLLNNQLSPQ
Test: Human LOXL2 Amine Oxidase Activity Assay (Amplex Red fluorescence)
Settings: concentrated conditioned media from CHO cells stably expressing human LOXL2, test compound incubated 2 h at 37° C., pH8, DAP substrate
pIC50: −log10 of the molar value. Structures can show the parent of a compound that is named as a salt.
PROPERTY: pIC50

# return recorded pIC50 for entry CN(C)C(=O)COc1ccc2c(=O)cc(CN)oc2c1 [Compound 1-32, hydrochloride] 6.00 to 6.52

# return recorded pIC50 for entry C#CCOc1ccc2c(=O)cc(CN)oc2c1 [Compound 1-45, hydrochloride] > 6.52

# return recorded pIC50 for entry NCc1cc(=O)c2ccc(OCc3cccc(C(=O)Nc4ccccc4)c3)cc2o1 [Compound 1-48, hydrochloride] > 6.52

# return recorded pIC50 for entry NCc1cc(=O)c2ccc(Br)cc2o1 [Compound 1-2, hydrochloride] > 6.52

# return recorded pIC50 for entry NCc1cc(=O)c2cc(-c3cn(Cc4ccccc4)nn3)ccc2o1 [Compound 1-15, hydrochloride] > 6.52

# return recorded pIC50 for entry NCc1cc(=O)c2cc(Br)ccc2o1 [Compound 1-1, hydrochloride] > 6.52

# return recorded pIC50 for entry NCc1cc(=O)c2ccc(Nc3cccc(C(=O)Nc4ccccc4)c3)cc2o1 [Compound 1-49, hydrochloride] > 6.52

# return recorded pIC50 for entry NCc1cc(=O)c2cc(-c3cccnc3)ccc2o1 [Compound 1-8, hydrochloride] > 6.52

# return recorded pIC50 for entry NCc1cc(=O)c2cc(OCc3ccccc3)ccc2o1 [Compound 1-30, hydrochloride] > 6.52

# return recorded pIC50 for entry NCc1cc(=O)c2cccc(OCc3ccccc3)c2o1 [Compound 1-54, hydrochloride] 6.00 to 6.52

# return recorded pIC50 for entry NCc1cc(=O)c2cc(-c3cn(CCO)nn3)ccc2o1 [Compound 1-16, hydrochloride] 6.00 to 6.52

# return recorded pIC50 for entry Cn1cc(-c2ccc3oc(CN)cc(=O)c3c2)cn1 [Compound 1-12, hydrochloride] > 6.52
